Data origin, for the record: paper PMC8294803

# Test system: zebrafish embryos
# MEASUREMENT_CONDITIONS: 5 µM, exposure through 120 hpf
QUANTITY_KIND: Mortality (%)
Return type: number; implicit unit %.

Data request, read-out Mortality (%), for CCOC(F)(F)C(F)(F)C(F)(F)C(F)(F)F
0

Data request, read-out Mortality (%), for O=S(=O)(O)C(F)(F)C(F)(F)C(F)(F)C(F)(F)C(F)(F)C(F)(F)C(F)(F)C(F)(F)F
2.2

Data request, read-out Mortality (%), for OCCCC(F)(F)C(F)(F)C(F)(F)F
1.1

Data request, read-out Mortality (%), for NC(=O)C(F)(F)C(F)(F)C(F)(F)C(F)(F)C(N)=O [compound 58, Octafluoroadipamide]
6.7

Data request, read-out Mortality (%), for CC(=O)C(F)(F)C(F)(F)F
2.2

Data request, read-out Mortality (%), for O=S(=O)(O)C(F)(F)C(F)(F)C(F)(F)C(F)(F)F
5.6

Data request, read-out Mortality (%), for OCCC(F)(F)C(F)(F)C(F)(F)C(F)(F)F
0
